Cited source for all entries: patent US20250282890A1

assayed.system: T1, recombinant human PSMA (prostate-specific membrane antigen), biotin-tagged (human, UniProt Q04609 44-750, biotin tag (site not stated))
T1 construct: also called biotin-tagged PSMA; biotin-labelled PSMA
T1 sequence (Q04609 44-750 limits assumed): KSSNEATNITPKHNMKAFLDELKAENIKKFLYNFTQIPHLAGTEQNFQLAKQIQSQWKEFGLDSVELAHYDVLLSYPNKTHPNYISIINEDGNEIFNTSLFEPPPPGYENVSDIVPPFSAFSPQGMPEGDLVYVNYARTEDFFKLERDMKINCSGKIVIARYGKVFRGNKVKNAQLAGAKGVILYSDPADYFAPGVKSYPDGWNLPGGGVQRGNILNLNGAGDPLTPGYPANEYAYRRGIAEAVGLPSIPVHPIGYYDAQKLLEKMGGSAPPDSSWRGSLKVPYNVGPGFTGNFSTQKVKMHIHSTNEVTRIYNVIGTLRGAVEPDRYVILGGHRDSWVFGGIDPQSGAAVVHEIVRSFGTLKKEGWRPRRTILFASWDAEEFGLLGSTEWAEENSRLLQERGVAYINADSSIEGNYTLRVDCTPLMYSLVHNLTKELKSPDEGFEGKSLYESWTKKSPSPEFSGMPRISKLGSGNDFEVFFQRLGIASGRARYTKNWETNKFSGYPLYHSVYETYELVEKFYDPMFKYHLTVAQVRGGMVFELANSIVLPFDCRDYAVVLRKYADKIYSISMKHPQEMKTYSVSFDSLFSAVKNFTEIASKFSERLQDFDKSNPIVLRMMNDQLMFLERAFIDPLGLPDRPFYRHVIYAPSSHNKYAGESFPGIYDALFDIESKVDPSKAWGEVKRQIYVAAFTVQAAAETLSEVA
test: PSMA ELISA on plates coated with recombinant PSMA, two-fold dilution series, goat anti-human-HRP and TMB
readout.type: EC50 (read off the curve)

h5D3 variant LVg2HVg2 (antibody, human IgG1, V domains shown, Full-length human IgG1 kappa variant of h5D3 (antibody 6)) VH: EVQLVESGGGLVQPGGSLRLSCAASGYAFQTSWMNWVRQAPGKGLEWISRIYPGDADTNYNAKFKGKATISADKSKNTLYLQMNSLRAEDTAVYYCARGEWYLYYFDYWGQGTLVTVSS VL: DIQMTQSPSSLSASVGDRVTITCSASQGIENFLTWYQQKPGKALKLLIYYTSSLHSGVPSRFSGSGSGTDYTLTISSLQPEDFATYYCQQYSNLPFTFGQGTKVEIK :: ~0.5 nM

Using the record for h5D3 variant LVg2HVg3 (antibody, human IgG1, V domains shown, Full-length human IgG1 kappa variant of h5D3 (antibody 6)) VH: EVQLVESGGGLVQPGGSLRLSCAASGYAFQTSWMNWVRQAPGKGLEWISRIYPGEGETNYNAKFKGKATISADKSKNTLYLQMNSLRAEDTAVYYCARGEWYLYYFDYWGQGTLVTVSS VL: DIQMTQSPSSLSASVGDRVTITCSASQGIENFLTWYQQKPGKALKLLIYYTSSLHSGVPSRFSGSGSGTDYTLTISSLQPEDFATYYCQQYSNLPFTFGQGTKVEIK , report its EC50 (read off the curve).
~3 nM
